Data origin: PubChem BioAssay (NCI)

- Tested on: SR leukemia
- test_method_notes: NCI tumour cell line growth inhibition, 48 h
Recorded TGI by entry
Give a bare numeral; the unit µM is implied.

Example cases with answers are listed next.
> print(dat)
                               input.smiles  target.entity  unit.string  data.value
1  COC(=O)CCCNC(=O)C(=O)c1c(O)c(O)c(C(C)C)c2cc(C)c(-c3c(C)cc4c(C(C)C)c(O)c(O)c(C(=O)C(=O)NCCCC(=O)OC)c4c3O)c(O)c12    SR leukemia           µM        3.17
2  O=C1c2cc([N+](=O)[O-])sc2C(=O)c2cc([N+](=O)[O-])sc21    SR leukemia           µM           6
3  CCN(CCCl)c1cc(CN(C)C)cc(NC(=O)c2ccc(C(=O)Nc3ccccc3)cc2)c1    SR leukemia           µM        1.16

// below: TGI requested for another molecule
May I ask what TGI has been recorded for `O=C(N[C@@H](Cc1ccccc1)B(O)O)[C@H](Cc1cccc2ccccc12)NC(=O)N1CCOCC1` ?
0.0126
